Recorded recombinant UMI read abundance (log10), one value per entry.
test: recombinant UMI read abundance after kanamycin selection (control-corrected) (log10(CPM+1)); higher = more efficient recombination; extreme values may be limits of the assay; sequences stand for … in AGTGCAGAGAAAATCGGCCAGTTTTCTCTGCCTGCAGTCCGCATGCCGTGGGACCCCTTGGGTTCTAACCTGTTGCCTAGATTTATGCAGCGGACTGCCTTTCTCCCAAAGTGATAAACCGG…AGGTTGGTTTCACT; site = the 11-nt donor;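 further: IS621 bridge recombinase in Escherichia coli cells against a fixed T5 target plasmid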
Lab note: record just the number, no unit beside it.

Reference set, count: 4
1) AGAAAGACATGGACCGGTTTTCCCGGTAATCCGTATTTGCG (site AGGAAGACTTG); 0
2) CTCCTTACATGGACCGGTTTTCCCGGTAATCCGTATTTGAG (site CTCCTTACTCT); 0.201
3) GTGGGTACATGGACCGGTTTTCCCGGTAATCCGTATTTGAC (site GTAGGTACTGT); 2.16
4) GAGATGACATGGACCGGTTTTCCCGGTAATCCGTATTTGCA (site GAGATGACTTG); 2.52

We next turn to a different sequence, shown below.
Which recombinant UMI read abundance (log10) reading was recorded for the sequence GTTACACCATGGACCGGTTTTCCCGGTAATCCGTATTTGGC (site GTTACACCTGC) ?
0

* * *

test: recombinant UMI read abundance after kanamycin selection (control-corrected) (log10(CPM+1)); higher = more efficient recombination; extreme values may be limits of the assay; sequences stand for … in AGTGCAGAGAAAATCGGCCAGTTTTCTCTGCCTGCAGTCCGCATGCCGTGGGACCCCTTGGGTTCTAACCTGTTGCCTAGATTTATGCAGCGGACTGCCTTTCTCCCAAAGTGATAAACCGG…AGGTTGGTTTCACT; site = the 11-nt donor
Recorded recombinant UMI read abundance (log10), one value per entry.
Lab note: record just the number, no unit beside it.

Reference set, count: 5
1. TAGCAGTCATGGACCGGTTTTCCCGGTAATCCGTATTTGTC (site TAGCAGTCTGA); 2.39
2. GCAAGAACATGGACCGGTTTTCCCGGTAATCCGTATTTGAC (site GCAAGAACTGT); 2.57
3. AATGTGGCATGGACCGGTTTTCCCGGTAATCCGTATTTGAC (site AATGTGGCTGT); 1.81
4. CCGATTACATGGACCGGTTTTCCCGGTAATCCGTATTTGCT (site CCGTTTACTAG); 0
5. TCCGAGACATGGACCGGTTTTCCCGGTAATCCGTATTTGCG (site TCTGAGACTCG); 0.0115

Which recombinant UMI read abundance (log10) reading was recorded for the sequence CCCTACACATGGACCGGTTTTCCCGGTAATCCGTATTTGCT (site CCCTACACTAG) ?
1.12

Which recombinant UMI read abundance (log10) reading was recorded for the sequence CCTAATCCATGGACCGGTTTTCCCGGTAATCCGTATTTGGC (site CCTAATACTGC) ?
0

Which recombinant UMI read abundance (log10) reading was recorded for the sequence ACACGAACATGGACCGGTTTTCCCGGTAATCCGTATTTGTA (site ACACGAACTCA) ?
0.747

Which recombinant UMI read abundance (log10) reading was recorded for the sequence CAAGCACCATGGACCGGTTTTCCCGGTAATCCGTATTTGCT (site CAAGCAACTAG) ?
0

* * *

experiment: recombinant UMI read abundance after kanamycin selection (control-corrected) (log10(CPM+1)); higher = more efficient recombination; extreme values may be limits of the assay; sequences stand for … in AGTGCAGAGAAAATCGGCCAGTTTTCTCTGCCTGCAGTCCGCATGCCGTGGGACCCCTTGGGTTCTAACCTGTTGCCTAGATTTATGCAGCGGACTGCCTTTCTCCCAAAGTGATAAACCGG…AGGTTGGTTTCACT; site = the 11-nt donor
readout: recombinant UMI read abundance (log10)

Reference set, count: 2
1. CCACACACATGGACCGGTTTTCCCGGTAATCCGTATTTGTA (site CCGCACACTTA); 0.0104
2. GCCACTCCATGGACCGGTTTTCCCGGTAATCCGTATTTGGG (site GCCACTCCTCC); 0.0141

Which recombinant UMI read abundance (log10) reading was recorded for the sequence CCCGGTCCATGGACCGGTTTTCCCGGTAATCCGTATTTGAA (site CCCGGTCCTTG) ?
0

Which recombinant UMI read abundance (log10) reading was recorded for the sequence TAGAAGACATGGACCGGTTTTCCCGGTAATCCGTATTTGCC (site TAGAAGACTGG) ?
2.25

Which recombinant UMI read abundance (log10) reading was recorded for the sequence GGGAATCCATGGACCGGTTTTCCCGGTAATCCGTATTTGTT (site AGGAATCCTAA) ?
0

Which recombinant UMI read abundance (log10) reading was recorded for the sequence TTCCCTACATGGACCGGTTTTCCCGGTAATCCGTATTTGAG (site GTCCCTACTCT) ?
0.0155

Which recombinant UMI read abundance (log10) reading was recorded for the sequence TATTCGGCATGGACCGGTTTTCCCGGTAATCCGTATTTGTG (site TATTTGGCTCA) ?
0.0132

Which recombinant UMI read abundance (log10) reading was recorded for the sequence TGGTTCCCATGGACCGGTTTTCCCGGTAATCCGTATTTGTG (site CGGTTCCCTCA) ?
0.0117

Which recombinant UMI read abundance (log10) reading was recorded for the sequence TGTTACCCATGGACCGGTTTTCCCGGTAATCCGTATTTGTA (site TGTTTCCCTTA) ?
0

Which recombinant UMI read abundance (log10) reading was recorded for the sequence GGACCAACATGGACCGGTTTTCCCGGTAATCCGTATTTGTA (site GGTCCAACTTA) ?
0.0428

Which recombinant UMI read abundance (log10) reading was recorded for the sequence AAAAGTACATGGACCGGTTTTCCCGGTAATCCGTATTTGAT (site AAAAGTACTAT) ?
1.62

Which recombinant UMI read abundance (log10) reading was recorded for the sequence CCGAATCCATGGACCGGTTTTCCCGGTAATCCGTATTTGTT (site CGGAATCCTAA) ?
0

Which recombinant UMI read abundance (log10) reading was recorded for the sequence AGGCCGACATGGACCGGTTTTCCCGGTAATCCGTATTTGCA (site AGGAAGACTTG) ?
0

* * *

assay: recombinant UMI read abundance after kanamycin selection (control-corrected) (log10(CPM+1)); higher = more efficient recombination; extreme values may be limits of the assay; sequences stand for … in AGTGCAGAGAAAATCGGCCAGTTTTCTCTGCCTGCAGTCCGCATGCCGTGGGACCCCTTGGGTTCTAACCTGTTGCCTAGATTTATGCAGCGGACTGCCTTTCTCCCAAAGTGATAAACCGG…AGGTTGGTTTCACT; site = the 11-nt donor
Recorded recombinant UMI read abundance (log10), one value per entry.
Lab note: record just the number, no unit beside it.

1. TCAGAGACATGGACCGGTTTTCCCGGTAATCCGTATTTGAA (site TCAGAGACTTT); 1.74
2. ACCTATACATGGACCGGTTTTCCCGGTAATCCGTATTTGAC (site ATCTATACTGT); 0.368
3. GTCCCATCATGGACCGGTTTTCCCGGTAATCCGTATTTGCG (site GTCCCATCTCG); 1.31

Which recombinant UMI read abundance (log10) reading was recorded for the sequence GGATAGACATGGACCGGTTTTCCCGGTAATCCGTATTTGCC (site GGATACACTGG) ?
1.54

Which recombinant UMI read abundance (log10) reading was recorded for the sequence CACCGCCCATGGACCGGTTTTCCCGGTAATCCGTATTTGTT (site CACAGCCCTAA) ?
0.00423

* * *

test: recombinant UMI read abundance after kanamycin selection (control-corrected) (log10(CPM+1)); higher = more efficient recombination; extreme values may be limits of the assay; sequences stand for … in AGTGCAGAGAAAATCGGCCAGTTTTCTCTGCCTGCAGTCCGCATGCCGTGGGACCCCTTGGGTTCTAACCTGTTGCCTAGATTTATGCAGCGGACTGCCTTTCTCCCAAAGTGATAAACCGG…AGGTTGGTTTCACT; site = the 11-nt donor
Label class 1 for high-side recombinant UMI read abundance (log10) (at or above 0.3) and class 0 for low-side recombinant UMI read abundance (log10) (below it).

Below, 2 sequences whose answers are already recorded.
1) CGATAAACATGGACCGGTTTTCCCGGTAATCCGTATTTGCT (site CGATCATCTAG); class 0
2) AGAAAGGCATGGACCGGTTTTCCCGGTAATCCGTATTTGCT (site AGAAAGACTAG); class 0

Quick check: does AGCAGATCATGGACCGGTTTTCCCGGTAATCCGTATTTGAA (site AGCAGATCTTT) have recombinant UMI read abundance (log10) greater than or equal to 0.3?
class 1

Quick check: does TGTCCGGCATGGACCGGTTTTCCCGGTAATCCGTATTTGGC (site TGCCCGGCTGC) have recombinant UMI read abundance (log10) greater than or equal to 0.3?
class 0

Quick check: does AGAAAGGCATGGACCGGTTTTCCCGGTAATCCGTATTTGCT (site AGAAAAGCTAG) have recombinant UMI read abundance (log10) greater than or equal to 0.3?
class 0

Quick check: does GCAGTAACATGGACCGGTTTTCCCGGTAATCCGTATTTGCA (site GCAGTAACTTG) have recombinant UMI read abundance (log10) greater than or equal to 0.3?
class 1

Quick check: does GAACATTCATGGACCGGTTTTCCCGGTAATCCGTATTTGTT (site GAAGATTCTAA) have recombinant UMI read abundance (log10) greater than or equal to 0.3?
class 0
